Target: T1, ARHGEF11, O15085
T1 sequence (O15085 42-136, limits assumed, looked up): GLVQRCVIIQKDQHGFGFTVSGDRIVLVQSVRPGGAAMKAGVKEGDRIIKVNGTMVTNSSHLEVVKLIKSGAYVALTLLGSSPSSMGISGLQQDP
Assay: holdup assay
Design: key: below the threshold = too weak to quantify, mostly under pKd 3.1 to 4
Details: plain residues with an end cap or a label only (N-terminal biotin on a linker: ttds)
MEASURED METRIC: pKd

BINDER	RESULT
SVWLRKETRV [CYSLTR2, Q9NS75]	4.46
TVASEKESVM [SLC1A5, Q15758]	3.56
SSRTRRETQL [HPV16-E6, P03126]	4.15
RSLEEEESQL [GRASP, Q7Z6J2]	3.78
STLTIFETAL [ABCC4, O15439]	4.93
